- Test system: beta-TC6 cells
- PROCEDURE_SUMMARY: Insulin HTRF assay, relative activity Ar normalized to sunitinib
- Format: cell-based
- SETTINGS: Mus musculus, normalized to positive control sunitinib (5 µM = 100%), Table 10
REPORTED_ENDPOINT: Emax

These recorded examples may help you get a feel for the data.
SMILES_ENTRY	Emax
COc1ccc(-c2cnc3ccc(NCC4CC4)nn23)cn1	10 to 20%
CC(=O)Nc1cccc(-c2ccc3nnc(-c4ccc5nccnc5c4)n3c2)c1	50 to 100%
O=C(NCCO)c1ccc(-c2cn3c(-c4cccs4)cnc3cn2)cc1	10 to 20%

Prompt line: Look at this compound and give its reported Emax. "COc1cc(-c2cn3c(-c4ccc5c(ccn5C)c4)cnc3cn2)ccc1O"
Response line: 20 to 50%

Prompt line: Look at this compound and give its reported Emax. "Oc1cccc(-c2ccc3nnc(-c4ccccn4)n3c2)c1"
Response line: 50 to 100%

* * *

- System: beta-TC6 cells
- PROCEDURE_SUMMARY: Insulin HTRF assay, relative activity Ar normalized to sunitinib
- Format: cell-based
- SETTINGS: Mus musculus, normalized to positive control sunitinib (5 µM = 100%), Table 10
REPORTED_ENDPOINT: Emax

These recorded examples may help you get a feel for the data.
MOLECULE	Emax
Cc1ccccc1-c1cnc2cnc(-c3cccc(F)c3)cn12	10 to 20%
Cc1ccccc1-c1cnc2cnc(-c3cccs3)cn12	10 to 20%

Prompt line: Look at this molecule and give its reported Emax. "COc1cc(OC)cc(-c2cn3c(-c4ccc5c(c4)OCO5)cnc3cn2)c1"
Response line: 50 to 100%

Prompt line: Look at this molecule and give its reported Emax. "CN(C)c1ccc(-c2ccc3ncc(-c4ccc(CO)cc4)n3n2)cc1"
Response line: 50 to 100%

Prompt line: Look at this molecule and give its reported Emax. "CN(C)CC#Cc1ccc2nnc(-c3ccccc3)n2c1"
Response line: 10 to 20%

* * *

- System: beta-TC6 cells
- PROCEDURE_SUMMARY: Insulin HTRF assay, relative activity Ar normalized to sunitinib
- Format: cell-based
- SETTINGS: Mus musculus, normalized to positive control sunitinib (5 µM = 100%), Table 10
REPORTED_ENDPOINT: Emax

These recorded examples may help you get a feel for the data.
SMILES_ENTRY	TARGET_OF_ASSAY	Emax
COc1ccc(CNc2ccc3ncc(-c4ccc(O)cc4)n3n2)cc1	beta-TC6 cells	20 to 50%
CC(=O)c1cccc(-c2cnc3ccc(-c4ccc(N)nc4)nn23)c1	beta-TC6 cells	20 to 50%
O=C(NCCO)c1ccc(-c2cn3c(-c4ccsc4)cnc3cn2)cc1	beta-TC6 cells	10 to 20%
c1csc(-c2cnc3cnc(-c4cc5ccccc5s4)cn23)c1	beta-TC6 cells	50 to 100%
COc1cc(-c2cnc3cnc(-c4cnn(C)c4)cn23)ccc1O	beta-TC6 cells	50 to 100%

Prompt line: Look at this compound and give its reported Emax. "COc1cccc(CC(=O)Nc2cnc3cnc(-c4ccc(Oc5ccccc5)cc4)cn23)c1"
Response line: 10 to 20%

Prompt line: Look at this compound and give its reported Emax. "COc1cccc(-c2ccc3ncc(-c4cccc(Cl)c4)n3n2)c1"
Response line: 10 to 20%

Prompt line: Look at this compound and give its reported Emax. "c1cncc(-c2cnc3ccc(-c4cccs4)nn23)c1"
Response line: 20 to 50%

Prompt line: Look at this compound and give its reported Emax. "c1cncc(-c2cnc3cnc(-c4cc5ccccc5s4)cn23)c1"
Response line: 20 to 50%

Prompt line: Look at this compound and give its reported Emax. "c1cnc2cc(-c3nnc4ccc(-c5ccoc5)cn34)ccc2n1"
Response line: 50 to 100%

Prompt line: Look at this compound and give its reported Emax. "N#Cc1ccc(-c2cnc3cnc(-c4ccccc4)cn23)cc1"
Response line: 20 to 50%

Prompt line: Look at this compound and give its reported Emax. "COc1cccc(-c2cn3c(-c4cccc(O)c4)cnc3cn2)c1F"
Response line: 20 to 50%

Prompt line: Look at this compound and give its reported Emax. "O=C(NCCO)c1cccc(-c2cn3c(-c4cccs4)cnc3cn2)c1"
Response line: 20 to 50%

Prompt line: Look at this compound and give its reported Emax. "Nc1ccc(-c2cn3c(NC(=O)c4ccccc4)cnc3cn2)cc1"
Response line: 20 to 50%

Prompt line: Look at this compound and give its reported Emax. "NC(=O)c1ccc(-c2cnc3ccc(Cc4ccc(F)c(F)c4)nn23)cc1"
Response line: 20 to 50%
